assay-conditions: buffer; pH 7.4; 200.0 µM
parameter: solubility kinetic

[
  {
    "compound": "O=C(COc1ccc(Cl)cc1)NCc1ccncc1",
    "parameter": "solubility kinetic",
    "reported-result": "> 41.5 µg/mL"
  },
  {
    "compound": "N#Cc1ccc(OCC(=O)NCC2COc3ccccc3O2)cc1 (centres undefined)",
    "parameter": "solubility kinetic",
    "reported-result": "> 48.7 µg/mL"
  },
  {
    "compound": "CC(C)C(=O)Nc1ccc2c(c1)nc(CCN1CCCCC1)n2C",
    "parameter": "solubility kinetic",
    "reported-result": "> 49.3 µg/mL"
  },
  {
    "compound": "c1ccc(CCNc2cnccn2)cc1",
    "parameter": "solubility kinetic",
    "reported-result": "> 29.9 µg/mL"
  },
  {
    "compound": "C[N+](C)(C)C[C@H](O)CC(=O)O.[Cl-]",
    "parameter": "solubility kinetic",
    "reported-result": "> 29.6 µg/mL"
  },
  {
    "compound": "C/C(=N\\O)C(=O)Nc1ccccc1",
    "parameter": "solubility kinetic",
    "reported-result": "> 26.7 µg/mL"
  },
  {
    "compound": "CCOc1ccc(CN2C(=O)c3ccccc3C2=O)cc1C(=O)O",
    "parameter": "solubility kinetic",
    "reported-result": "> 48.8 µg/mL"
  },
  {
    "compound": "O=C(O)c1cc([N+](=O)[O-])ccc1C(=O)Nc1cccc([N+](=O)[O-])c1",
    "parameter": "solubility kinetic",
    "reported-result": "> 49.7 µg/mL"
  },
  {
    "compound": "CCOc1ccc(S(=O)(=O)NC2CCCCCC2)cc1",
    "parameter": "solubility kinetic",
    "reported-result": "< 0.6 µg/mL"
  },
  {
    "compound": "COC(=O)c1ccc(NC(=S)NN2CCOCC2)cc1",
    "parameter": "solubility kinetic",
    "reported-result": "> 44.3 µg/mL"
  },
  {
    "compound": "Cn1c(SCc2ccc(Br)cc2)nc2c(c1=O)SCC2",
    "parameter": "solubility kinetic",
    "reported-result": "< 0.4 µg/mL"
  },
  {
    "compound": "Cc1cccnc1NC(=O)C(C)N1C(=O)c2ccccc2C1=O (centres undefined)",
    "parameter": "solubility kinetic",
    "reported-result": "> 46.4 µg/mL"
  },
  {
    "compound": "C[C@@H]1NC(=O)N[C@@H]1CCCCCC(=O)O",
    "parameter": "solubility kinetic",
    "reported-result": "> 32.1 µg/mL"
  },
  {
    "compound": "O=c1ccnc2n1COCS2",
    "parameter": "solubility kinetic",
    "reported-result": "> 25.5 µg/mL"
  }
]
